All figures here come from ChEMBL document CHEMBL1201862.

Field: GI50. Provide a value for each of the molecules that follow.
Test system: BT-549
TEST DESCRIPTION: NCI tumour cell line growth inhibition, 48 h
The source made the active and inactive calls. Cut-off read from the data, not from the text of the source: active = GI50 up to about 1.1 µM and inactive = higher.

Please report the recorded GI50 for COc1ccc(CNc2nc3cc(C(F)(F)F)ccc3nc2C(=O)O)cc1 .
23.3 µM (inactive)

Please report the recorded GI50 for O=C(O)c1cccc(C(=O)O)c1[S+]([O-])Cc1ccccc1 (stereo not drawn) .
> 100 µM (inactive)

Please report the recorded GI50 for O=C1C(=O)c2c(oc(=O)c3ccccc23)-c2ccccc21 .
11.7 µM (inactive)

Please report the recorded GI50 for N#CCCOc1cccc(C2(N3CCCCC3)CCCCC2)c1 .
> 100 µM (inactive)

Please report the recorded GI50 for O=C(c1ccccc1)c1c(-c2ccccc2)[nH]n(-c2ccc([N+](=O)[O-])cc2)c(=O)c1=O .
27.6 µM (inactive)

Please report the recorded GI50 for COC(=O)[C@]12CC[C@H]3CN(C(=O)OCc4ccccc4)[C@H]([C@H]31)[C@H](c1ccccc1)N2 .
85.5 µM (inactive)

Please report the recorded GI50 for CC#CCCCC1(C)CCNC1=S (stereo not drawn) .
> 10 µM (inactive)

Please report the recorded GI50 for CN(C)/C=N/CC(O)c1ccccc1 (stereo not drawn) .
> 100 µM (inactive)

Please report the recorded GI50 for O=C1c2ccccc2C(=O)c2sc(Nc3ccc([N+](=O)[O-])cc3)nc21 .
14.3 µM (inactive)

Please report the recorded GI50 for CN=C(n1ccnc1)n1ccnc1 .
> 100 µM (inactive)

Please report the recorded GI50 for Cc1cc2[n-][n+]3ncc(-c4ccccc4)n3c2cc1[N+](=O)[O-] .
> 100 µM (inactive)

Please report the recorded GI50 for NCCSc1nc2ccccc2c(=O)n1-c1ccccc1 .
27.2 µM (inactive)

Please report the recorded GI50 for C=C1c2nc3ccccc3n2C=C(c2ccc(Cl)cc2)N1c1ccc(OC)cc1 .
2.67 µM (inactive)
